System: SF-295 CNS
Test: NCI-60 one-dose screen, 48 h (100 = growth as untreated, 0 = no growth, -100 = all killed)
Conditions: 10 µM unless noted
Compounds without any hit were thinned out: in the full panel of roughly 83,000, 20% have a hit. The source made the active and inactive calls. Rule for the calls: active = growth percent below 10; inactive = the rest.
Quick reference for growth among some compounds

compound | growth
O=C1CC(=O)N(c2ccccc2)O1 | 101% (inactive)
O=C1/C(=C/c2ccc3cccc(Cl)c3n2)SC(=S)N1CCc1ccc(O)cc1 | 91.9% (inactive)
NS(=O)(=O)c1ccc(NC2=C(Cl)C(=O)c3ccccc3C2=O)cc1 | 111% (inactive)
Cc1cc(C)c2c(c1)N1OC(C2)C[C@H]1/C=C/c1ccccc1 (stereo partly specified) | 108% (inactive)
O=C1Nc2ccc(F)cc2/C1=C/c1nc(-c2ccc(F)cc2)n2ccccc12 | 92.1% (inactive)
CCC(C)CC(C)C(=O)c1c(O)ccn(OC)c1=O (stereo unspecified) | 87.1% (inactive)
